Where do these numbers come from? They come from patent US10457703B2.

target: human FXR (NR1H4) (Homo sapiens (Human), UniProt Q96RI1); assay: Human FXR (NR1H4) Assay (Gal4 promoter driven luciferase reporter, Indigo Bioscience kit); assay type: cell-based; details: read-out: Efficacy (%);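 further: 100% equals the efficacy of CDCA; efficacy normalized to CDCA set as 100%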
Sequence (Q96RI1 whole entry, the tested form may be a part): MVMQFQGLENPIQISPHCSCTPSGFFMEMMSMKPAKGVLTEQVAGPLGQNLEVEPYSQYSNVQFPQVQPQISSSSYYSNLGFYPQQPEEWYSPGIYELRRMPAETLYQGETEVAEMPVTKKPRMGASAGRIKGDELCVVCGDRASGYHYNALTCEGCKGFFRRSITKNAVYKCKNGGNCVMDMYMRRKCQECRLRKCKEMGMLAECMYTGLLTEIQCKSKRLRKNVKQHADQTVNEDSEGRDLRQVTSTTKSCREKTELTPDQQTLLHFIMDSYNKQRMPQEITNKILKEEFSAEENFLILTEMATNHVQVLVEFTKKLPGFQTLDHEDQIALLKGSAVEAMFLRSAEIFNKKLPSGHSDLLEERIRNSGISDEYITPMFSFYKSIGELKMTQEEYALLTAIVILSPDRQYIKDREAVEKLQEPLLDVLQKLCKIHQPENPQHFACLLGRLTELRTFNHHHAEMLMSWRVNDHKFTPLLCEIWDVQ
assay_metric: Emax (%)

smiles_string	assay_result
CC[C@H]1[C@@H](O)[C@@H]2[C@H](CC[C@]3(C)[C@@H]([C@H](C)COC(=O)NS(=O)(=O)c4ccc(N5CCCCC5=O)cc4)CC[C@@H]23)[C@@]2(C)CC[C@@H](O)C[C@@H]12	221
CC[C@H]1[C@@H](O)[C@@H]2[C@H](CC[C@]3(C)[C@@H]([C@H](C)COC(=O)NS(=O)(=O)c4ccc(-n5ccnn5)nc4)CC[C@@H]23)[C@@]2(C)CC[C@@H](O)C[C@@H]12	307
